Each record here notes measured Kb.
# TEST_TARGET: gastrin (CCK2) receptors (Rattus norvegicus)
# Construct: The stomach was excised and flushed with ca. 1 ml of unbuffered physiological saline solution; from tissue; host or cells: isolated whole stomach of immature rats (ca. 21 days old)
# ASSAY_TEXT: gastrin (CCK2) antagonist activity in an immature rat stomach assay
# COND: pentagastrin dose-response curves, acid secretion, read-out: pKB rat stomach (converted)
Give the number; nM is assumed, so skip it.

Answered cases to consult:
# STRUCTURE, TEST_TARGET, Kb [nM]
measured = [
    ("CN1C(=O)N(CC(=O)Nc2ccccc2)[N+]([O-])=C(C2CCCCC2)c2ccccc21", "gastrin (CCK2) receptors (Rattus norvegicus)", 2.82),
    ("CC(C)(C)C(=O)CN1C(=O)N(CC(=O)Nc2cccc(-n3ccnc3)c2)N=C(C2CCCCC2)c2ccccc21", "gastrin (CCK2) receptors (Rattus norvegicus)", 871),
]

Summary for this compound, `CC(C)(C)C(=O)CN1C(=O)N(CC(=O)Nc2cccc(CO)n2)N=C(C2CCCCC2)c2ccccc21` : Kb is 129

Summary for this compound, `O=C(CN1N=C(C2CCCCC2)c2ccccc2N(CC(=O)C2CCCC2)C1=O)Nc1cccc(-c2ccc(C(=O)O)o2)c1` : Kb is 1.1

Summary for this compound, `CC(C)(C)C(=O)CN1C(=O)N(CC(=O)Nc2cccc(SCc3nn[nH]n3)c2)N=C(C2CCCCC2)c2ccccc21` : Kb is 3.39

Summary for this compound, `Cc1nc(-c2cccc(NC(=O)CN3N=C(C4CCCCC4)c4ccccc4N(CC(=O)C4CCCC4)C3=O)c2)cs1` : Kb is 6.03

Summary for this compound, `CNc1cccc(NC(=O)CN2N=C(C3CCCCC3)c3ccccc3N(CC(=O)N3CCN(C)CC3)C2=O)c1` : Kb is 263

Summary for this compound, `CC(C)(C)C(=O)CN1C(=O)N(CC(=O)Nc2ccc3cnn(CC(=O)O)c3c2)N=C(C2CCCCC2)c2ccccc21` : Kb is 14.1

Summary for this compound, `O=C(O)CCc1cccc(NC(=O)CN2N=C(C3CCCCC3)c3ccccc3N(CC(=O)C3CCCC3)C2=O)c1` : Kb is 1.23

Summary for this compound, `Cc1cc(NC(=O)CN2N=C(C3CCCCC3)c3ccccc3N(CC(=O)C(C)(C)C)C2=O)cc(C(=O)O)c1` : Kb is 40.7

Summary for this compound, `CC(C)(C)C(=O)CN1C(=O)N(CC(=O)Nc2cccc(O)c2)N=C(C2CCCCC2)c2ccccc21` : Kb is 27.5

Summary for this compound, `CC(C)(C)C(=O)CN1C(=O)N(CC(=O)Nc2cccc(-c3nc(=O)o[nH]3)c2)N=C(C2CCCCC2)c2ccccc21` : Kb is 9.55

Summary for this compound, `CC(C)(C)C(=O)CN1C(=O)N(CC(=O)Nc2cccc(-c3csc(C(=O)O)n3)c2)N=C(C2CCCCC2)c2ccccc21` : Kb is 37.2

Summary for this compound, `CC(C)(C)C(=O)CN1C(=O)N(CC(=O)Nc2cccc(-c3ccccc3C(=O)O)c2)N=C(C2CCCCC2)c2ccccc21` : Kb is 3.24

---

Each record here notes measured Kb.
# TEST_TARGET: gastrin (CCK2) receptors (Rattus norvegicus)
# Construct: The stomach was excised and flushed with ca. 1 ml of unbuffered physiological saline solution; from tissue; host or cells: isolated whole stomach of immature rats (ca. 21 days old)
# ASSAY_TEXT: gastrin (CCK2) antagonist activity in an immature rat stomach assay
# COND: pentagastrin dose-response curves, acid secretion, read-out: pKB rat stomach (converted)
# Protocol: The compounds of the examples were tested for gastrin (CCK2) antagonist activity in an immature rat stomach assay. The procedure was as follows: The oesophagus of immature rats (33-50 g, ca. 21 days old) was ligated at the level of the cardiac sphincter and the duodenal sphincter was cannulated. The stomach was excised and flushed with ca. 1 ml of unbuffered physiological saline solution. The fundus was punctured and cannulated. […]
Enter the number, and then the unit.

# COMPOUND, RESULT_TYPE, OBSERVED_RESULT
data = [
    ("CNc1nc(-c2cccc(NC(=O)CN3N=C(C4CCCCC4)c4ccccc4N(CC(=O)C(C)(C)C)C3=O)c2)cs1 [Example 150]", "Kb", "1.29 nM"),
    ("CC(C)(CO)C(=O)CN1C(=O)N(CC(=O)Nc2cccc(CC(=O)O)c2)N=C(C2CCCCC2)c2ccccc21 [Example 110]", "Kb", "93.3 nM"),
    ("CNc1cccc(NC(=O)NCN2N=C(c3ccccn3)c3ccccc3N(CC(=O)C(C)(C)C)C2=O)c1 [Example 8]", "Kb", "263 nM"),
]

Now look at this one.
Summary for this compound, O=C(CN1N=C(C2CCCCC2)c2ccccc2N(CC(=O)C2CCCCC2)C1=O)Nc1cccc(C(=O)O)c1 [Example 79] : Kb is 2.51 nM

---

# TEST_TARGET: gastrin (CCK2) receptors (Rattus norvegicus)
# Construct: The stomach was excised and flushed with ca. 1 ml of unbuffered physiological saline solution; from tissue; host or cells: isolated whole stomach of immature rats (ca. 21 days old)
# Sequence (P30553 1-452): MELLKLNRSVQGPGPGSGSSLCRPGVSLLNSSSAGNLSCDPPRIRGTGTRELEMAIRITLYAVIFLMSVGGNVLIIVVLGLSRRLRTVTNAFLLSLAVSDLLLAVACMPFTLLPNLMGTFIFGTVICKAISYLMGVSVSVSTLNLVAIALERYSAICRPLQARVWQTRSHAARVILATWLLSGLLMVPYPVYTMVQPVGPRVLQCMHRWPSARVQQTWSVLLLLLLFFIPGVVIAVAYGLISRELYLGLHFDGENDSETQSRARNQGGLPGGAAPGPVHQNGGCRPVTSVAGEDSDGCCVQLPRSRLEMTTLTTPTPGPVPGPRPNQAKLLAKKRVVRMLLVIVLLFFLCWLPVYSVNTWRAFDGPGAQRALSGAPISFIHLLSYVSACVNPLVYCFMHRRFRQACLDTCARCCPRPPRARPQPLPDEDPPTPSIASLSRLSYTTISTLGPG
# ASSAY_TEXT: gastrin (CCK2) antagonist activity in an immature rat stomach assay
# COND: pentagastrin dose-response curves, acid secretion, read-out: pKB rat stomach (converted)
Output class 1 for Kb not less than 40 nM; output class 0 otherwise.

Previously resolved entries follow.
# COMPOUND, CLASS_NAME
rows = [
    ("O=C(O)CSc1cccc(NC(=O)CN2N=C(C3CCCCC3)c3ccccc3N(CC(=O)C3CC3)C2=O)c1 [Example 120]", "class 0"),
    ("CC(C)(C)C(=O)CN1C(=O)N(CC(=O)Nc2cccc(-c3nc(C(=O)O)co3)c2)N=C(C2CCCCC2)c2ccccc21 [Example 144]", "class 0"),
    ("CC(C)(C)C(=O)CN1C(=O)N(CC(=O)Nc2cccc(C(=O)O)c2)N=C(C23CC4CC(CC(C4)C2)C3)c2ccccc21 [Example 54]", "class 0"),
    ("CC1(C(=O)CN2C(=O)N(CC(=O)Nc3cccc(-c4nc(=O)o[nH]4)c3)N=C(C3CCCCC3)c3ccccc32)CCCC1 [Example 87]", "class 0"),
    ("CC(C)(C)C(=O)CN1C(=O)N(CC(=O)NCc2cccc(C(=O)O)c2)N=C(C2CCCCC2)c2ccccc21 [Example 45]", "class 1"),
    ("CNc1cc(NC(=O)CN2N=C(C3CCCCC3)c3ccccc3N(CC(=O)C(C)(C)C)C2=O)ccc1OC [Example 105]", "class 0"),
    ("CC(C)(C)C(=O)CN1C(=O)N(CC(=O)Nc2cccc(CSC(=N)N)c2)N=C(C2CCCCC2)c2ccccc21 [Example 49]", "class 1"),
    ("CC(C)(C)C(=O)CN1C(=O)N(CC(=O)Nc2ccc3c(c2)N(CC(=O)O)CC3)N=C(C2CCCCC2)c2ccccc21 [Example 34]", "class 0"),
]

Could you tell me if the measured Kb of CNc1ccccc1NC(=O)CN1N=C(C2CCCCC2)c2ccccc2N(CC(=O)C(C)(C)C)C1=O [Example 101] reaches 40 nM or more? class 1

Could you tell me if the measured Kb of O=C(O)CSc1cccc(NC(=O)CN2N=C(C3CCCCC3)c3ccccc3N(CC(=O)C3CCCC3)C2=O)c1 [Example 58] reaches 40 nM or more? class 0

---

# TEST_TARGET: gastrin (CCK2) receptors (Rattus norvegicus)
# Construct: The stomach was excised and flushed with ca. 1 ml of unbuffered physiological saline solution; from tissue; host or cells: isolated whole stomach of immature rats (ca. 21 days old)
# ASSAY_TEXT: gastrin (CCK2) antagonist activity in an immature rat stomach assay
# COND: pentagastrin dose-response curves, acid secretion, read-out: pKB rat stomach (converted)
RESULT_TYPE: Kb (nM)
Give the number; nM is assumed, so skip it.

# COMPOUND, TEST_TARGET, READOUT_UNIT, Kb
rows = [
    ("CC(C)(C)C(=O)CN1C(=O)N(CC(=O)Nc2ccc3ccn(CC(=O)O)c3c2)N=C(C2CCCCC2)c2ccccc21 [Example 70]", "gastrin (CCK2) receptors (Rattus norvegicus)", "nM", 0.851),
    ("CC(C)(C)C(=O)CN1C(=O)N(CC(=O)Nc2cccc(-c3ccc(C(=O)O)cc3)c2)N=C(C2CCCCC2)c2ccccc21 [Example 146]", "gastrin (CCK2) receptors (Rattus norvegicus)", "nM", 7.08),
]

Entry CC(C)(C)C(=O)CN1C(=O)N(CC(=O)Nc2cccc(S(=O)(=O)CC(=O)O)c2)N=C(C2CCCCC2)c2ccccc21 [Example 50] , gastrin (CCK2) receptors (Rattus norvegicus) data, Kb value: 11
